Would you mind telling me the reported Stability of Cannabinoids in AB Red of each entry?
Protocol Notes: Stability of cannabinoid and Vitamin E components of Beverage 2 (AB Red) stored at 8° C. and 21-25° C., LCMSMS over 570 days
Condition Details: 21-25° C., 480 days
Answers are plain numbers, in µg/mL.

Compound	Stability of Cannabinoids in AB Red / µg/mL
CCCCCc1cc(O)c2c(c1)OC(C)(C)[C@@H]1CCC(C)=C[C@@H]21 [D9 THC, delta-9-tetrahydrocannabinol, reference compound]	11.8

For every item in the list below, what is its measured Stability of Cannabinoids in AB Red?
1. C=C(C)[C@@H]1CCC(C)=C[C@H]1c1c(O)cc(CCCCC)c(C(=O)O)c1O
2. CCCCCc1cc(O)c2c(c1)OC(C)(CCC=C(C)C)C=C2 (centres unmarked)

1. 1.57
2. 0.28

Can you give me Stability of Cannabinoids in AB Red for all of these, one by one?
1. CCCCCc1cc(O)c(C/C=C(\C)CCC=C(C)C)c(O)c1
2. C=C(C)[C@@H]1CCC(C)=C[C@H]1c1c(O)cc(CCC)cc1O

1: 4.44; 2: 0.19
